TARGET OF ASSAY: human IRAK4 (Homo sapiens (Human))
Sequence (Q9NWZ3 whole entry): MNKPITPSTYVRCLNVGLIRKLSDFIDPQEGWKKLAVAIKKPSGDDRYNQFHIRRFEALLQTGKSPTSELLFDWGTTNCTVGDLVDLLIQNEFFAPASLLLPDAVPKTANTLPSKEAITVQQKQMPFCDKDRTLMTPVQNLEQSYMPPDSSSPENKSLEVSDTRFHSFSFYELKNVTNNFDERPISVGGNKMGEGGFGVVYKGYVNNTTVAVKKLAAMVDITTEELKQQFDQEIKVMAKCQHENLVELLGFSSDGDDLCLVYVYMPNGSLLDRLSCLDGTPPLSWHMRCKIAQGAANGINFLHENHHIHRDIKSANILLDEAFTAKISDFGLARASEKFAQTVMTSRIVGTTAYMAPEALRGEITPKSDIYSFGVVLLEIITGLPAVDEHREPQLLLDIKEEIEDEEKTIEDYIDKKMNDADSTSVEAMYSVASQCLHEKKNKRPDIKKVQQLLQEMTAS
TEST SUMMARY: IRAK4 kinase inhibition, Transcreener fluorescence polarization ADP assay
EXPERIMENTAL PARAMETERS: recombinant full-length His6-IRAK4; 125 uM ATP; 90 min; Ki computed using ATP Km 642 uM
MEASUREMENT TYPE: Ki (nM)
Give the quantity in nM, number only.

Using the record for CC1(C)Cc2cc(NC(=O)c3cnn4cccnc34)c(N3CCOCC3)cc2C1=O [Example 499] , report its Ki. 30

Using the record for CC1(C)Cc2cc(NC(=O)c3cnn4cccnc34)c(N3CCCC3CO)cc2O1 (stereo not shown) [Example 201] , report its Ki. 28

Using the record for CC1(C)Cc2cc(NC(=O)c3cnn4cccnc34)c(N3CCOCC3)cc2S1(=O)=O [Example 118] , report its Ki. 14

Using the record for CC1(C)Cc2cc(NC(=O)c3cnn4cccnc34)c(N3CCC(C)(C(N)=O)CC3)cc2O1 [Example 184] , report its Ki. 3.1

Using the record for CC1(C)Cc2cc(NC(=O)c3cnn4cccnc34)c(N3C[C@@H](F)[C@@H](F)C3)cc2O1 [Example 203] , report its Ki. 15

Using the record for Cc1cnc2c(C(=O)Nc3cc4c(cc3N3CCC(CO)CC3)OC(C)(C)C4)cnn2c1 [Example 12] , report its Ki. 2

Using the record for CC(CC(C)(C)O)N1Cc2cc(NC(=O)c3cnn4cccnc34)c(N3CCOCC3)cc2C1=O (stereo in doubt) [Example 545] , report its Ki. 5.9

Using the record for CC1(C)Cc2cc(NC(=O)c3cnn4cccnc34)c(N3CCc4[nH]cnc4C3)cc2O1 [Example 238] , report its Ki. 36

Using the record for CCOP(=O)(OCC)OCC1(C)Cc2cc(NC(=O)c3cnn4cccnc34)c(N3CCOCC3)cc2O1 (stereo not shown) [Example 290] , report its Ki. 180

Using the record for CC1(C)Cc2cc(NC(=O)c3cnn4cccnc34)c(N3CCC(C#N)CC3)cc2O1 [Example 216] , report its Ki. 3

Using the record for CC1(C)Cc2cc(NC(=O)c3cnn4cccnc34)c(N3CCC4CC43)cc2O1 (stereo not shown) [Example 240] , report its Ki. 27

Using the record for C[C@]1(CO)Cc2cc(NC(=O)c3cnn4cccnc34)c(N3CCC([C@](C)(O)C(F)(F)F)CC3)cc2O1 [Example 410] , report its Ki. 6.2

Using the record for CC1(C)Cc2cc(NC(=O)c3cnn4cccnc34)c(N3CCN(CC(=O)N4CCOCC4)CC3)cc2O1 [Example 228] , report its Ki. 48

Using the record for CN1CCCC(Oc2cc3c(cc2NC(=O)c2cnn4cccnc24)CC(C)(C)O3)C1 (stereo not shown) [Example 304] , report its Ki. 720

Using the record for CC1(C)Cc2cc(NC(=O)c3cnn4cccnc34)c(OC[C@H]3CNC(=O)C3)cc2O1 [Example 307] , report its Ki. 32

Using the record for CC(=O)c1cnc2c(C(=O)Nc3cc4c(cc3N3CCOCC3)O[C@](C)(CO)C4)cnn2c1 [Example 86] , report its Ki. 49
